# TESTED ON: human PAH with the R408W mutation (Homo sapiens, UniProt P00439, R408W)
# Construct: expressed in transfected cells
# Sequence (P00439 1-452 R408W): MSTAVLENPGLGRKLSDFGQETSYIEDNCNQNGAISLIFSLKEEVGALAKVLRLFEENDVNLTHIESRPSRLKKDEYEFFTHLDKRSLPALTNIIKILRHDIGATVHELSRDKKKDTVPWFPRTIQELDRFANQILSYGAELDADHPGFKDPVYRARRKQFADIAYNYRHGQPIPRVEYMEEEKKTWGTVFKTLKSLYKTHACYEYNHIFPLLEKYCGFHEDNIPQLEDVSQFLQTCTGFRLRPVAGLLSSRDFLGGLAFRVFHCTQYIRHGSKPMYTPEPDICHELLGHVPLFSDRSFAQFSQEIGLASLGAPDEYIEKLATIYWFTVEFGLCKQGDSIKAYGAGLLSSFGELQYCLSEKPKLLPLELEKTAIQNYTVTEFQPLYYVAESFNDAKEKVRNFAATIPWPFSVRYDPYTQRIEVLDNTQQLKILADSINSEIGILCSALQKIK
# METHOD SUMMARY: Cell Based Phenylalanine Flux Assay
# CONDITION: A375 cells expressing human R408W PAH; 24 hrs with compound; 13C-Tyrosine by LC-MS; average where tested multiple times; read-out: AC50
Listed here: items and their measured AC50.
OBSERVATION TYPE: AC50

| MOLECULE | TESTED ON | OBSERVATION TYPE | TEST VALUE |
| --- | --- | --- | --- |
| O=C(c1nc(Cl)cs1)N1CCc2[nH]cnc2C1c1nc2c(F)cccc2s1 (stereo not drawn) | human PAH with the R408W mutation (Homo sapiens, UniProt P00439, R408W) | AC50 | 1 to 5 µM |
| O=C(c1nnc(-c2ccccn2)o1)N1CCCc2[nH]cnc2C1c1nc2ccccc2[nH]1 (stereo not drawn) | human PAH with the R408W mutation (Homo sapiens, UniProt P00439, R408W) | AC50 | > 5 µM |
| CN(C)Cc1ccc2c(C(=O)N3CC4(CC4)c4[nH]cnc4C3c3nc4ccccc4s3)cnn2c1 (stereo not drawn) | human PAH with the R408W mutation (Homo sapiens, UniProt P00439, R408W) | AC50 | > 5 µM |
| O=C(c1n[nH]c2ccccc12)N1CCc2[nH]cnc2C1c1nc2ccc(F)cc2s1 (stereo not drawn) | human PAH with the R408W mutation (Homo sapiens, UniProt P00439, R408W) | AC50 | > 5 µM |
| Cc1nnc(CC(=O)N2CCc3[nH]cnc3C2c2nc3c(F)cccc3s2)s1 (stereo not drawn) | human PAH with the R408W mutation (Homo sapiens, UniProt P00439, R408W) | AC50 | 1 to 5 µM |
| Cn1nc(C2CC2)cc1C(=O)N1CCc2[nH]cnc2[C@@H]1c1nc2c(F)cccc2s1 (single isomer, unassigned) | human PAH with the R408W mutation (Homo sapiens, UniProt P00439, R408W) | AC50 | > 5 µM |

###

# TESTED ON: human PAH with the R408W mutation (Homo sapiens, UniProt P00439, R408W)
# Construct: expressed in transfected cells
# Sequence (P00439 1-452 R408W): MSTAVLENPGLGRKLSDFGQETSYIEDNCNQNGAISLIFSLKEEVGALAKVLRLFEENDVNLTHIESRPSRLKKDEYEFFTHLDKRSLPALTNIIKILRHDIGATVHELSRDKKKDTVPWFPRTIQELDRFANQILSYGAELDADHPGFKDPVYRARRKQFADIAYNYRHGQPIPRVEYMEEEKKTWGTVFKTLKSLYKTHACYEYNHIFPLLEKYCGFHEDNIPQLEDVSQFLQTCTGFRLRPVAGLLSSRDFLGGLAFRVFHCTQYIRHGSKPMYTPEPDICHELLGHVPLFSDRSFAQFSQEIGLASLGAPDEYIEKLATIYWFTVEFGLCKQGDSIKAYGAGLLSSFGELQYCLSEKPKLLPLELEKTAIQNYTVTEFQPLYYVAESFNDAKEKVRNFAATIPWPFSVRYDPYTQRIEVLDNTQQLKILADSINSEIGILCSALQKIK
# METHOD SUMMARY: Cell Based Phenylalanine Flux Assay
# CONDITION: A375 cells expressing human R408W PAH; 24 hrs compound incubation; 13C-Tyrosine by LC-MS; average where tested multiple times; read-out: AC50

| MOLECULE SMILES | AC50 |
| --- | --- |
| O=C(c1nnc(-c2cnn(C(F)F)c2)o1)N1CCc2[nH]cnc2[C@H]1c1nc2ccccc2s1 | < 500 nM |
| O=C(c1nnc(-c2cc[nH]n2)o1)N1CCc2[nH]cnc2[C@H]1c1nc2ccccc2s1 | < 500 nM |
| O=C(c1nc(Cl)cs1)N1CCc2[nH]cnc2[C@H]1c1nc2ccccc2s1 | 500 to 1000 nM |
